tested on: Plasmodium berghei; assay: Change in mean survival time of Plasmodium berghei infected mice (Mus musculus) after […] subcutaneous dose; type: functional
quantity_measured: Delta MST (days)
Provide the reading as a plain figure in days.

Solved cases (4 shown):
{"columns": ["molecule", "readout_unit", "Delta MST"],
 "data": [
  ["CCC(C)NCc1cc(Nc2cc[n+]([O-])c3cc(Cl)ccc23)cc(-c2ccc(Cl)cc2)c1O (stereo not given)", "days", 1.6],
  ["CC(C)(C)NCc1cc(Nc2cc[n+]([O-])c3cc(Cl)ccc23)cc(-c2ccccc2)c1O", "days", -0.1],
  ["CCN(CC)Cc1cc(Nc2cc[n+]([O-])c3cc(Cl)ccc23)cc(-c2ccc(SC)cc2)c1O", "days", 0.5],
  ["CN(C)Cc1cc(Nc2cc[n+]([O-])c3cc(Cl)ccc23)cc(-c2ccc(Cl)cc2)c1O", "days", 5]
]}

# evaluate next
Please give the measured Delta MST for this molecule: CCN(CC)Cc1cc(Nc2cc[n+]([O-])c3cc(Cl)ccc23)cc(-c2ccccc2F)c1O
-0.1
